measured.on: mTOR (Homo sapiens)
Construct: purchased Invitrogen (Carlsbad, Calif.)
Sequence (P42345 1360-2549 limits assumed): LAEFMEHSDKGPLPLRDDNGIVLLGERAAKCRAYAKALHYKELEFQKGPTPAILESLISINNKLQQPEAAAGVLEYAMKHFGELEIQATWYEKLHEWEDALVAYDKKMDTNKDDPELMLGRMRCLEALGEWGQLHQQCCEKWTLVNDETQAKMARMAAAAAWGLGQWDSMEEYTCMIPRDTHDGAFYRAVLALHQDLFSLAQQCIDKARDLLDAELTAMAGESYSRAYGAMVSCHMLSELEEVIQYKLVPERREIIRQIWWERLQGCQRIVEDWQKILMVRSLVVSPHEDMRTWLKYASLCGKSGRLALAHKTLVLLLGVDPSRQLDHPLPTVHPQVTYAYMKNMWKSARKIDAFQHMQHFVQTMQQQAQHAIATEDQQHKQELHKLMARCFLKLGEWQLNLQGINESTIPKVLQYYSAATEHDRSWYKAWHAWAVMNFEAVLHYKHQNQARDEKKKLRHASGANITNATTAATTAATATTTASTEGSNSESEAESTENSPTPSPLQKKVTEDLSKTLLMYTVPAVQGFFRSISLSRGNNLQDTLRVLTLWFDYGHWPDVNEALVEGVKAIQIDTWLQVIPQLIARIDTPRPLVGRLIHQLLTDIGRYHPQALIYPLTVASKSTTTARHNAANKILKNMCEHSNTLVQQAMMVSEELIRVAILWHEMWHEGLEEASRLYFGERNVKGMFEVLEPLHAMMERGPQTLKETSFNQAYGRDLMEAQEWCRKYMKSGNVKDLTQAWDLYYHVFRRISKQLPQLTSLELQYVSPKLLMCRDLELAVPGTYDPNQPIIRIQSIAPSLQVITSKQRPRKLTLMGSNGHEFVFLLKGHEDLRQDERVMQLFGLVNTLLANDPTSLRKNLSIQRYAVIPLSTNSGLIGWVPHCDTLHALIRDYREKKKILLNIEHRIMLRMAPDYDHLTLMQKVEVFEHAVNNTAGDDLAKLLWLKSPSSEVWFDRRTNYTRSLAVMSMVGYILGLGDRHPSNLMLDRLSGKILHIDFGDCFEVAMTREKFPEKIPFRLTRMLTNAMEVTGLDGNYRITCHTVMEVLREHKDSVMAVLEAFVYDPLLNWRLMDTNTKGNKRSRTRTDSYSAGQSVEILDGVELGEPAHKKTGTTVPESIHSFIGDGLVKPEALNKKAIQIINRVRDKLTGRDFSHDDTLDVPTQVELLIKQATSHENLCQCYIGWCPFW
test.protocol: In vitro mTOR assay (Lanthascreen)
Assay type: biochemical
condition.details: average if run more than once
Binary label based on IC50 with cut-off 0.005 µM: below gives True, not below gives False.

Here's what some known entries look like.
# molecule, class.assignment
data = [
    ("CN(Cc1cccc(F)c1)c1ccnc2ccc(-c3cnc(Cl)c(NS(C)(=O)=O)c3)cc12 [Example 85]", "False"),
    ("CS(=O)(=O)Nc1cc(-c2ccc3nccc(N4CCN(Cc5ccc6c(c5)OCO6)CC4)c3c2)cnc1Cl [Example 84]", "False"),
    ("COCC(C)Nc1ccnc2ccc(-c3cnc(Cl)c(NS(=O)(=O)c4ccc(F)cc4)c3)cc12 (stereo not drawn) [Example 99]", "False"),
]

Prompt line: Input COc1cc(-c2ccnc3ccc(-c4cnc(Cl)c(NS(C)(=O)=O)c4)cc23)ccn1 [Example 106] ; condition: IC50 strictly below 0.005 µM. Does it hold?
Response line: True

Prompt line: Same for CC1(C)CN(c2ccnc3ccc(-c4cnc(Cl)c(NS(C)(=O)=O)c4)cc23)CCO1 [Example 90]
Response line: True

Prompt line: Param item: O=S(=O)(Nc1cc(-c2ccc3nccc(-c4cccnc4)c3c2)cnc1Cl)c1ccc(F)cc1 [Example 93]
Response line: True

Prompt line: Can you check O=S(=O)(Nc1cc(-c2ccc3nccc(N4CCCC(O)CC4)c3c2)cnc1Cl)c1ccc(F)cc1 (stereo not drawn) [Example 95] next?
Response line: False

Prompt line: Subsequent entry: O=S(=O)(Nc1cc(-c2ccc3nccc(N4CCN(Cc5ccncc5)CC4)c3c2)cnc1Cl)c1ccc(F)cc1 [Example 89]
Response line: True

Prompt line: Entry to check: O=S(=O)(Nc1cc(-c2ccc3ncc(NCCN4CCOCC4)nc3c2)cnc1Cl)c1ccc(F)cc1 [Example 91]
Response line: False

====

measured.on: PI3Kα (Homo sapiens, UniProt P42336)
Construct: Full length p110 subunits of PI3K α, β and δ, N-terminally labeled with polyHis tag; polyHis (N); made in house; host or cells: Sf9 insect cells (baculovirus)
Sequence (P42336 whole entry): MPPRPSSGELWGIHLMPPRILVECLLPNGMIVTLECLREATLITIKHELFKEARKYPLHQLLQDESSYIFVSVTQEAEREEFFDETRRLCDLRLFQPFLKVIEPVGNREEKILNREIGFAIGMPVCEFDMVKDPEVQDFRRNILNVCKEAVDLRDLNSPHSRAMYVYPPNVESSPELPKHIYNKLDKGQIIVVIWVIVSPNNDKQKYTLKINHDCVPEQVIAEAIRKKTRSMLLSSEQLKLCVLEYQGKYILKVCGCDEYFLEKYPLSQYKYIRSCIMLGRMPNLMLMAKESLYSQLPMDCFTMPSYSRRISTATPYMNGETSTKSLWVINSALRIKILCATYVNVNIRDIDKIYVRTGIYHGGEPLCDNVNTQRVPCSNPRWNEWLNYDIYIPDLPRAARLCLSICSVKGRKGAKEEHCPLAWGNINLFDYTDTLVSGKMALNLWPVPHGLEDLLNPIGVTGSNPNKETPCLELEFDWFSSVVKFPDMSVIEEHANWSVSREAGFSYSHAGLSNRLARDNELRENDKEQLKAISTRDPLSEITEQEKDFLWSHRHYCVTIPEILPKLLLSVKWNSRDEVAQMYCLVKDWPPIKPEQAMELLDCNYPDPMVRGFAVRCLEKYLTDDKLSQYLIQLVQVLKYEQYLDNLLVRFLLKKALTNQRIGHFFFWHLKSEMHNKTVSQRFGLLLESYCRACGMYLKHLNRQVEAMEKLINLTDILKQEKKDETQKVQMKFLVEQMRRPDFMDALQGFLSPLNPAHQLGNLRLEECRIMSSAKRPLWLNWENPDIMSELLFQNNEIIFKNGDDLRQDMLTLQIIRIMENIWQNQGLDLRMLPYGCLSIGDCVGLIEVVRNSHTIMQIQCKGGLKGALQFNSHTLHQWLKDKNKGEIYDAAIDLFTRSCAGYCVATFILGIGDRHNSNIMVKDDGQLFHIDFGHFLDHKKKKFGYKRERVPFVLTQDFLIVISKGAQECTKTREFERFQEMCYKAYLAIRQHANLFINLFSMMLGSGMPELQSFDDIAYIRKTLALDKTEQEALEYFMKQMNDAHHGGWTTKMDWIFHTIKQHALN
Sequence (P27986 whole entry partner): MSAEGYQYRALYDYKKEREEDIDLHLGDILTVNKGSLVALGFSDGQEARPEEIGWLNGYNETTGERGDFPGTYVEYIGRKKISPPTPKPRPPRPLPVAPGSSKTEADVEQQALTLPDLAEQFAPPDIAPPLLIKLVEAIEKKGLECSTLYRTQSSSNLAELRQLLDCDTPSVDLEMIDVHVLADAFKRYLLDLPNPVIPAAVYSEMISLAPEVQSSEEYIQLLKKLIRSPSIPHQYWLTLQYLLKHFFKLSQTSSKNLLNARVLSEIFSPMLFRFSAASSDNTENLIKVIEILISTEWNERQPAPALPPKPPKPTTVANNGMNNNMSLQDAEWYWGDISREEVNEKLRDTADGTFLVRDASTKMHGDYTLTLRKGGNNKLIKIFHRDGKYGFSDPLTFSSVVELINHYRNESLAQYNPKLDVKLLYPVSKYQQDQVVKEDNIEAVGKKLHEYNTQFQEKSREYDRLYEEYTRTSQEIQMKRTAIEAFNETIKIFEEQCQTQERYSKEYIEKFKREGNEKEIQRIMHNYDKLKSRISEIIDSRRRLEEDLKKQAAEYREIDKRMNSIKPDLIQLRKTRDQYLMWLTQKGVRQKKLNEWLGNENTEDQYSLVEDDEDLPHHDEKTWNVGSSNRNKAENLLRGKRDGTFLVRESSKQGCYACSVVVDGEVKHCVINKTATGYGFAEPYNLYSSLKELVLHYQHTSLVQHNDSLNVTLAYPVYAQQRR
test.protocol: In vitro PI3K AlphaScreen assay
Format: biochemical
condition.details: average if run more than once
Ki strictly under 0.003 µM means Fulfilled; at 0.003 µM or over means Not fulfilled.

# molecule, class.assignment
measured = [
    ("O=S(=O)(Nc1cc(-c2ccc3nccc(N4CCOCC4)c3c2)cnc1Cl)c1cccnc1", "Fulfilled"),
]

Prompt line: Please indicate whether the reported Ki of O=S(=O)(Nc1cc(-c2ccc3nccc(N4CCCC(O)CC4)c3c2)cnc1Cl)c1ccc(F)cc1 (centres unmarked) is strictly below 0.003 µM.
Response line: Not fulfilled

Prompt line: Try O=S1(=O)CCC(COc2ccnc3ccc(-c4cnc(Cl)c(NS(=O)(=O)c5ccc(F)cc5)c4)cc23)CC1 next.
Response line: Fulfilled

====

measured.on: PI3Kα (Homo sapiens, UniProt P42336)
Construct: Full length p110 subunits of PI3K α, β and δ, N-terminally labeled with polyHis tag; polyHis (N); made in house; host or cells: Sf9 insect cells (baculovirus)
test.protocol: In vitro PI3K AlphaScreen assay
Type: biochemical
condition.details: average if run more than once
attribute.measured: Ki (µM)
One number for each entry, in µM.

Use the examples below as a reference point.
# chem.smiles, measured.on, unit.symbol, reported
records = [
    ("O=C1COc2ccc(-c3cnc(Cl)c(NS(=O)(=O)c4ccc(F)cc4)c3)cc2N1", "PI3Kα (Homo sapiens, UniProt P42336)", "µM", 0.0858),
    ("CS(=O)(=O)Nc1cc(-c2ccc3nccc(-c4cccnc4)c3c2)cnc1Cl", "PI3Kα (Homo sapiens, UniProt P42336)", "µM", 0.0013),
    ("COc1ccc(OC)c(CNc2ccnc3ccc(-c4cnc(Cl)c(NS(C)(=O)=O)c4)cc23)c1", "PI3Kα (Homo sapiens, UniProt P42336)", "µM", 0.0332),
]

Kindly review the next molecule as well.
Prompt line: What does the record list as Ki for CN(C)S(=O)(=O)Nc1cc(-c2ccc3ncc(=O)n(-c4cccc(C(F)(F)F)c4)c3c2)cnc1Cl ?
Response line: 0.0023
